- Tested on: K4 kissing-loop RNA reporter
- PROCEDURE SUMMARY: apparent KD of K4 kissing-loop reporter; higher = weaker reporter binding
- RUN CONDITIONS: Eterna round: R107; input ligand: none
MEASURED ATTRIBUTE: apparent KD of K4 kissing-loop reporter (nM)
Give bare numbers, in nM.

Use the examples below as a reference point.
CONSTRUCT SEQUENCE: CUGGGUUGACGAAAAGUCAACAAACGAGAAGGAGCGCACGAAAGUGCAGGUAGGUCGCUCAGUCCAGUGAUGUUGGAACAUCCAG [#SwitchBubble 8 #K4Late]
RECORDED MEASUREMENT: 462

CONSTRUCT SEQUENCE: AUGUCUGAUAGCAGUGAUGUUGCUUCGGAUACCAGACGCGAUCUUGUCCCUUGGCAGCUGACACGGCACGUGCUAGGUUAGAAGG [whbob_Ex_Theo_A_th75]
RECORDED MEASUREMENT: 155

CONSTRUCT SEQUENCE: UGGAUAUCGUUUAGUCUGGUGAGCUCAGAUACCAGACUAGCGAUGGUCCCUUGGCAGCUGAUUACGAUUGAGUGAUGUUCAAUCG [Theo A Ex t9c]
RECORDED MEASUREMENT: 172

Q: Indicate its recorded apparent KD of K4 kissing-loop reporter; the sequence in question is AGACCUCAGUGAUGUUGAGGUAACGCUGAUACCAGUGACUUAAUUCACCCUUGGCAGCAGUCCACCAAGGUAUCUGAUUAGGUCU [Theo A Ex t5]
Result: 133

---

Can you tell me apparent KD of K4 kissing-loop reporter for the items I'm about to list?
- System: K4 kissing-loop RNA reporter
- PROCEDURE SUMMARY: apparent KD of K4 kissing-loop reporter; higher = weaker reporter binding
- RUN CONDITIONS: Eterna round: R107; input ligand: theophylline 20 uM
One number for each entry, in nM.

Use the examples below as a reference point.
CONSTRUCT SEQUENCE: UUGAGCCUGACGCAAGUCAGGCUCUGCGAGCGAGGACCGGUACGGCCGCCACUCGGUGCAGUGAUGUUGCAUGGCCGCAAGGCCG [#2 Exclusion - Tryptophan A Attempt #17 (HarryS)]
TARGET SYSTEM: K4 kissing-loop RNA reporter
UNIT: nM
apparent KD of K4 kissing-loop reporter: 394

CONSTRUCT SEQUENCE: ACGUAGUACGUAGGAUAUCAGAGAUCAGUUAGUGAGAUCGAGUGAUGUUCGAUCAUGUGUUCAGUUUGAGAAGGAUGUAGUAGGA [KL-SSFMN-B5]
TARGET SYSTEM: K4 kissing-loop RNA reporter
UNIT: nM
apparent KD of K4 kissing-loop reporter: 408

CONSTRUCT SEQUENCE: GGAUUGCGUUCGGCCGCCACUAGACUACAUUCCACGCCCGACCCGUUUUUAAGUGAUGUUUAAACUAGGACCGGGAACCGAUUUC [theeternabot_exclusion_KL_Trp_B_33]
TARGET SYSTEM: K4 kissing-loop RNA reporter;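 note: bound reporter read as fluorescence of individual clusters on recovered sequencing chips by microscopy, with normalized cluster intensities fitted with a binding model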
UNIT: nM
apparent KD of K4 kissing-loop reporter: 388

Q: Indicate its recorded apparent KD of K4 kissing-loop reporter; the sequence in question is UGUAUGGACUGAAGGAGCGGUAGAUAAACUGAGUGAUGUUCGGCAGAUAAAGGCGCAAGCCACCAGGUAGGUCGCAGUCCAUACU [KL-SSArg B3]
Result: 408

Hello, the source for this data is the supplement of paper PMC9170038, in case you need it.
